Task for the reader: assign each of the following compounds its reported pIC50.
System: SK-OV-3
ASSAY NOTES: Antitumor activity against human SK-OV-3 cells assessed as reduction in cell viability incubated for 72 hrs by CCK8 assay
Type: functional, cell-based
CONDITION DESCRIPTION: SK-OV-3, 72 h
Numbers only, as −log10 of the molar value.

These solved cases illustrate the format of a correct answer.
COc1ccc2c(c1)CCCN2c1nc(NCCCO)nc2ccc(F)cc12 = 8.24
CCCNc1nc(N2CCCc3cc(OC)ccc32)c2cc(F)ccc2n1 = 8.17

Reported pIC50 for CC(=O)O[C@H]1C(=O)[C@@]2(C)[C@H]([C@H](OC(=O)c3ccccc3)[C@]3(O)C[C@H](OC(=O)[C@H](O)[C@@H](NC(=O)c4ccccc4)c4ccccc4)C(C)=C1C3(C)C)[C@]1(OC(C)=O)CO[C@@H]1C[C@@H]2O was 7.94
